Every entry's value here was drawn from the supplement of paper PMC7125110.

B1: glmS ribozyme (parent)
chain: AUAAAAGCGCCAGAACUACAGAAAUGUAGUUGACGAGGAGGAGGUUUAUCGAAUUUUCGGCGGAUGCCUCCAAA

Variants of: B1
Test: self-cleavage kobs at 160 uM GlcN6P; higher = faster cleavage; RNA array
Conditions: with glucosamine-6-phosphate
Variants at the floor of the assay were thinned out.
Assignment: determine reported self-cleavage kobs at 160 uM GlcN6P for the given variants.

Query string: What measured self-cleavage kobs at 160 uM GlcN6P goes with C34A C50G ?
Result string: 5.9e-05 s⁻¹

Query string: For U45A U46G then?
Result string: 0.00762 s⁻¹

Query string: Try this variant too: G9A U46G U57A
Result string: < 1e-05 s⁻¹

Query string: Check U47C C67U too.
Result string: 6.7e-05 s⁻¹

Query string: Next variant: C8U U65G
Result string: < 1e-05 s⁻¹

Query string: What about this variant? G51C C58A
Result string: < 1e-05 s⁻¹

Query string: And A48C A52G ?
Result string: < 1e-05 s⁻¹

Query string: // repeat for G9A C34A G59C and report
Result string: < 1e-05 s⁻¹

Query string: How about C11U G29U A39C U54A ?
Result string: < 1e-05 s⁻¹

Query string: Would you kindly repeat that for A33U A48U ?
Result string: < 1e-05 s⁻¹

Query string: Another: U31C U56G
Result string: 0.000413 s⁻¹

Query string: Next: G59C U65A
Result string: < 1e-05 s⁻¹

Query string: For A39G C68U then?
Result string: 0.000783 s⁻¹

Query string: Likewise for A53U C71A ?
Result string: 0.000145 s⁻¹

Query string: Proceed to G40C C61U
Result string: < 1e-05 s⁻¹

Query string: Try this variant too: U46A G66U
Result string: 8.12e-05 s⁻¹

Query string: // next record G9A A33C
Result string: < 1e-05 s⁻¹

Query string: Another variant to look at: G9U G59U
Result string: < 1e-05 s⁻¹

Query string: Try this variant too: G13C A48C
Result string: < 1e-05 s⁻¹

Query string: Next entry: G7A G51U
Result string: < 1e-05 s⁻¹

Query string: What do you have for U31G A64U ?
Result string: < 1e-05 s⁻¹

Query string: Moving on to the next variant: A12C A53U
Result string: 0.000867 s⁻¹

Query string: Entry G13C G44U please
Result string: < 1e-05 s⁻¹

Query string: Record: A6U C10A A39G G40C C61G C67G
Result string: < 1e-05 s⁻¹

Query string: Further, for C10U U31A U49G G62U C68U ?
Result string: < 1e-05 s⁻¹

Query string: Next: A53U C70G
Result string: 6.88e-05 s⁻¹

Query string: Now try A12C G37U C50G U54G .
Result string: 4.97e-05 s⁻¹

Query string: Again, but for G37A A42C U46C
Result string: < 1e-05 s⁻¹

Query string: Try this variant too: U47C A52C
Result string: < 1e-05 s⁻¹

Query string: And A52G U56A ?
Result string: 6.31e-05 s⁻¹

Query string: And A36U G41A A42U G43U ?
Result string: < 1e-05 s⁻¹

Query string: Please do the same for A14U A39U as well.
Result string: 0.000258 s⁻¹

Query string: How about this variant: G43U C70G
Result string: < 1e-05 s⁻¹

Query string: Follow-up item: C8U G44A
Result string: < 1e-05 s⁻¹

Query string: Again, but for U54A G59A C71A
Result string: < 1e-05 s⁻¹

Query string: Also need G41C G63A , thanks.
Result string: < 1e-05 s⁻¹

Query string: // next record G7C A14U C16G U30A U56A C67G
Result string: < 1e-05 s⁻¹

Query string: Another variant to look at: A12C G41U
Result string: 7.73e-05 s⁻¹

Query string: Input U31G U45C C67G
Result string: 0.000177 s⁻¹
